Exercise: for every item that follows, state its recorded EC50.
Molecular target: ExsA (Pseudomonas aeruginosa, UniProt P26993)
Construct: made in house
Sequence (P26993 1-278): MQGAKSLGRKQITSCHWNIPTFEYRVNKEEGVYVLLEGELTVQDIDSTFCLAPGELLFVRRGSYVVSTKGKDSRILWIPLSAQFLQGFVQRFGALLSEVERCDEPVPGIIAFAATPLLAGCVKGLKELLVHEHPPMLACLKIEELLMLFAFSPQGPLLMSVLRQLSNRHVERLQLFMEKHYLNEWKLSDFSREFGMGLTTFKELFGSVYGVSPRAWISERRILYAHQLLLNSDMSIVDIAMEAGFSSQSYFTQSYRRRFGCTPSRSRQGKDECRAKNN
Experiment: Chemiluminescence-based ExsA-DNA binding assay
Parameters: species or system P. aeruginosa
Details: Table 7, cell-free system; read-out: ExsA EC50

Inquiry: Param item = CCOP(=O)(COn1c(-c2ccc(NC(=O)c3ccc(F)cc3)cc2)nc2ccc([N+](=O)[O-])cc21)OCC ; retrieve measured EC50.
Reply text: > 25 µM

Inquiry: Reported EC50 for O=C(/C=C/c1ccc(C(F)(F)F)cc1)Nc1ccc(-c2nc3ccc([N+](=O)[O-])cc3n2O)cc1 : what is it?
Reply text: 10 to 25 µM

Inquiry: Value lookup for EC50; key = O=C(NCc1ccc(-c2nc3ccc([N+](=O)[O-])cc3n2O)cc1)c1ccc(F)cc1
Reply text: > 25 µM

Inquiry: Query (compound): CCc1cc(-c2nc3ccc([N+](=O)[O-])cc3n2O)ccc1NC(=O)c1ccc(F)cc1 ; field requested: EC50
Reply text: > 25 µM

---

Biological target: LcrF (VirF) (Yersinia pestis)
Sequence (P28808 whole entry, looked up): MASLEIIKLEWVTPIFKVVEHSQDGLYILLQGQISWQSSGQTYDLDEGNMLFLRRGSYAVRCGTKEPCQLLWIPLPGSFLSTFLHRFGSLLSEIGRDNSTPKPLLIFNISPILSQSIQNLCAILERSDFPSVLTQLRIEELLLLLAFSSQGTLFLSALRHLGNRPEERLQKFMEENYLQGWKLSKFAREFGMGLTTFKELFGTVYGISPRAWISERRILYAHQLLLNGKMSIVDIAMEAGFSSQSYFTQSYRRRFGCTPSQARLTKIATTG
Assay: biochemical
Assay type: binding, Y. pseudotuberculosis
Conditions: EC50 for inhibition of LcrF(VirF)-DNA binding
pEC50: −log10 of the molar value.
Would you kindly list pEC50 for each of these compounds?

Inquiry: Entry O=C(/C=C/c1ccc(C(F)(F)F)cc1)Nc1ccc(-c2nc3ccc([N+](=O)[O-])cc3n2O)cc1 has what pEC50?
Reply text: > 5.00

Inquiry: Please report the recorded pEC50 for Cc1ccc(/C=C/C(=O)Nc2ccc(-c3nc4ccc([N+](=O)O)cc4n3O)cc2)cc1 .
Reply text: > 5.00

Inquiry: Using the record for O=C(Nc1ccc(-c2nc3ccc([N+](=O)[O-])cc3n2O)cc1)c1ccccc1 , report its pEC50.
Reply text: 4.60 to 5.00

Inquiry: So what does the record say about pEC50 for CC(=NO)c1ccc2nc(-c3ccc(NC(=O)c4ccc(N(C)C)cc4)cc3)n(O)c2c1 ?
Reply text: < 4.60

Inquiry: Please report the recorded pEC50 for O=C(CCc1ccc(F)cc1)Nc1ccc(-c2nc3ccc([N+](=O)[O-])cc3n2O)cc1 .
Reply text: < 4.60

Inquiry: Sample CN(C)c1cc2nc(-c3ccc(NC(=O)/C=C/c4ccc(F)cc4)cc3)n(O)c2cc1[N+](=O)[O-] — what was its pEC50?
Reply text: < 4.60

Inquiry: What value of pEC50 has been recorded for this entry: CC(C)c1ccc(/C=C/C(=O)Nc2ccc(-c3nc4ccc([N+](=O)[O-])cc4n3O)cc2)cc1
Reply text: < 4.60

Inquiry: Would you kindly share the measured pEC50 for COc1cc(NC(=O)c2ccc(C(C)=O)cc2)ccc1-c1nc2ccc([N+](=O)[O-])cc2n1O ?
Reply text: < 4.60

---

So I've got a bunch of compounds here, and I need their EC50 values.
Biological target: ExsA (Pseudomonas aeruginosa)
Construct: made in house
Sequence (P26993 1-278): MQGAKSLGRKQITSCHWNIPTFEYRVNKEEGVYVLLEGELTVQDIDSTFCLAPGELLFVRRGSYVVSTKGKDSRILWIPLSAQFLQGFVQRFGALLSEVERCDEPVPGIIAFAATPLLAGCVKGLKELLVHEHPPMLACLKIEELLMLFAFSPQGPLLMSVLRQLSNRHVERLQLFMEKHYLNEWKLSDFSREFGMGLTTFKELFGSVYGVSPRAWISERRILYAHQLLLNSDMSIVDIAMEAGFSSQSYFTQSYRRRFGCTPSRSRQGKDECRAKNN
Assay: Chemiluminescence-based ExsA-DNA binding assay
Set-up: species or system P. aeruginosa
Conditions: Table 7, cell-free system; read-out: ExsA EC50

Inquiry: Value lookup for EC50; key = CC(=O)c1ccc(/C=C/C(=O)N(CC(N)=O)c2ccc(-c3nc4ccc(C#N)cc4n3O)cc2)cc1 [GQ]
Reply text: > 25 µM

Inquiry: // query EC50 value for entry N#Cc1ccc2nc(-c3ccc(NC(=O)/C=C/c4ccccc4)cc3)n(O)c2c1 [CL]
Reply text: 10 to 25 µM

Inquiry: Quick one: EC50 for O=C(Nc1ccc(-c2nc3ccc([N+](=O)[O-])cc3n2O)cc1)c1ccc2c(c1)CCCC2=O [EP] ?
Reply text: > 25 µM

Inquiry: Data request, read-out EC50, for O=C(/C=C/c1ccc(-n2ccnc2)nc1)Nc1ccc(-c2nc3ccc([N+](=O)[O-])cc3n2O)cc1 [GS]
Reply text: 10 to 25 µM

Inquiry: Quick one: EC50 for N#Cc1ccc(C(=O)Nc2ccc(-c3nc4ccc([N+](=O)O)cc4n3O)cc2)cc1 [E] ?
Reply text: 10 to 25 µM

Inquiry: Please give the measured EC50 for this compound: N#Cc1ccc(/C=C/C(=O)Nc2ccc(-c3nc4ccc([N+](=O)[O-])cc4n3O)cc2)cc1 [X]
Reply text: < 10 µM

Inquiry: Endpoint output: EC50 of CC(=O)c1ccc(/C=C/C(=O)Nc2ccc(-c3nc4ccc(S(N)(=O)=O)cc4n3O)cc2)cc1 [GF] . Value?
Reply text: 10 to 25 µM

Inquiry: Need EC50, item CC(=O)c1ccc(/C=C/C(=O)Nc2ccc(-c3nc4cc(OCCN5CCOCC5)c([N+](=O)[O-])cc4n3O)cc2)cc1 [FV]
Reply text: > 25 µM

---

Target: ExsA (Pseudomonas aeruginosa, UniProt P26993)
Construct: made in house
Sequence (P26993 1-278): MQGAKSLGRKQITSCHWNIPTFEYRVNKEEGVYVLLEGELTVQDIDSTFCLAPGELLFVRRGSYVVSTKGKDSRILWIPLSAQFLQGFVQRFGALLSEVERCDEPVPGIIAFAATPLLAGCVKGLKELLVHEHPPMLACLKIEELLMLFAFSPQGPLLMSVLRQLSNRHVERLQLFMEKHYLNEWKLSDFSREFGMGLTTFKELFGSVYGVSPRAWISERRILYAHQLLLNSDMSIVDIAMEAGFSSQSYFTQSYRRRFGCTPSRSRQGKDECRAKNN
Assay: Chemiluminescence-based ExsA-DNA binding assay
Set-up: species or system P. aeruginosa
Settings: Table 10; read-out: ExsA EC50
pEC50: −log10 of the molar value.
MEASURED ENDPOINT: pEC50

Inquiry: I am curious: what pEC50 value has been reported for O=[N+]([O-])c1ccc2nc(-c3ccc(-c4ccccc4)o3)n(O)c2c1 ?
Reply text: < 5.30

Inquiry: Dear colleague, I am looking for the recorded pEC50 of the following compound: O=C(Nc1ccc(-c2nc3ccc([N+](=O)[O-])cc3n2O)cc1)c1ccc(F)cc1
Reply text: 5.31 to 6.00

Inquiry: Find the recorded pEC50 belonging to CN(C)c1ccc(C(=O)Nc2ccc(-c3nc4ccc([N+](=O)[O-])cc4n3O)cc2)cc1 and report it.
Reply text: 5.31 to 6.00

---

Hi there, I'd appreciate the recorded pEC50 for every entry that follows.
Biological target: SoxS (Escherichia coli)
Sequence (P0A9E2 1-107): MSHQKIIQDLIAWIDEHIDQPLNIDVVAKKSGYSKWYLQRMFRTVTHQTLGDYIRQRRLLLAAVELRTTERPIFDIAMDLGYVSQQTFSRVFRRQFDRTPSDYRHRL
Experiment: Chemiluminescence-based SoxS-DNA binding assay
Design: made in house; species or system E. coli
Conditions: Table 10; read-out: SoxS EC50
pEC50: −log10 of the molar value.

Inquiry: Value lookup for pEC50; key = CN(C)c1ccc(C(=O)Nc2ccc(-c3nc4ccc([N+](=O)[O-])cc4n3O)cc2)cc1
Reply text: > 6.05

Inquiry: Which value of pEC50 has been reported for O=[N+]([O-])c1ccc2nc(-c3ccc(-c4ccccc4)o3)n(O)c2c1 in the records?
Reply text: 5.31 to 6.00

Inquiry: Given O=C(Nc1ccc(-c2nc3ccc([N+](=O)[O-])cc3n2O)cc1)c1ccc(F)cc1 , state its recorded pEC50.
Reply text: 5.31 to 6.00

---

Provide the recorded pEC50 for the entries that follow.
Target: ExsA (Pseudomonas aeruginosa, UniProt P26993)
Construct: made in house
Test: Chemiluminescence-based ExsA-DNA binding assay
Set-up: species or system P. aeruginosa
Details: Table 7, cell-free system; read-out: ExsA EC50
pEC50: −log10 of the molar value.

Inquiry: I would be grateful if you could share the reported pEC50 for O=C(/C=C/c1ccc(F)cc1)Nc1ccc(-c2nc3ccc([N+](=O)[O-])cc3n2O)cc1F .
Reply text: 4.60 to 5.00

Inquiry: Any idea what pEC50 was measured for O=C(Nc1ccc(-c2nc3ccc([N+](=O)[O-])cc3n2O)cc1)C1=Cc2ccccc2OC1 ?
Reply text: 4.60 to 5.00

Inquiry: Name the reported pEC50 value associated with the molecule CCc1cc(-c2nc3ccc([N+](=O)[O-])cc3n2O)ccc1NC(=O)c1ccc(C(C)=O)cc1
Reply text: 4.60 to 5.00

Inquiry: If you can, please state the reported pEC50 value of CS(=O)(=O)c1ccc(C(=O)Nc2ccc(-c3nc4ccc([N+](=O)[O-])cc4n3O)cc2)cc1 .
Reply text: < 4.60

Origin of the recorded values: patent US20090131481A1
